Just for reference, patent US6903238B2 is where these values come from.

value-type: melting point

Record request: melting point value, item CC1=C(c2ccc(O)cc2)C(=O)c2cc(O)ccc21 240 to 245 °C

Record request: melting point value, item O=C1C(c2ccc(O)cc2)=C(Br)c2cc(O)ccc21 245 °C (dec.)

Record request: melting point value, item CCNC1=C(c2ccc(O)cc2)C(=O)c2cc(O)ccc21 250 °C (dec.)

Record request: melting point value, item O=C1C(c2ccc(O)cc2)=C(Br)c2c(O)cc(O)cc21 350 °C (dec.)

Record request: melting point value, item CC1=C(c2ccc(O)cc2)C(=O)c2cc(O)c(O)cc21 226 to 229 °C

Record request: melting point value, item O=C1C(c2ccc(O)cc2)=C(c2ccccc2)c2c(O)cc(O)cc21 223 to 225 °C

Record request: melting point value, item O=C1C(c2ccc(O)cc2)=C(Br)c2ccc(O)cc21 240 °C (dec.)

Record request: melting point value, item O=C1c2cc(O)cc(O)c2C(=O)C1c1ccc(O)cc1 (stereo not shown) 220 to 222 °C

Record request: melting point value, item CSC1=C(c2ccc(O)cc2)C(=O)c2cc(O)ccc21 90 to 92 °C

Record request: melting point value, item CSC1=C(c2ccc(O)cc2)C(=O)c2cc(O)cc(O)c21 208 to 210 °C

* * *

measured-on: human ERα (Homo sapiens)
Sequence (P03372 250-595): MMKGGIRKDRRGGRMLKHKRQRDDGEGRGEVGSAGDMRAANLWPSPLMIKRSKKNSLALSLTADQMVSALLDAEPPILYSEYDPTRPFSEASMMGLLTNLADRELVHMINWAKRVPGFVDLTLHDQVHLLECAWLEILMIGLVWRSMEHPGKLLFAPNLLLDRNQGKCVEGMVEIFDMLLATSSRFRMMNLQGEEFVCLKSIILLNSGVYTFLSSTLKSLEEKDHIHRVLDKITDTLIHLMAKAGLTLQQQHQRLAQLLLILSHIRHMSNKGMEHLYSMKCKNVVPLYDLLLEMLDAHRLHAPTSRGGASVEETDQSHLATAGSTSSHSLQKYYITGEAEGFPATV
assay-text: Radioligand binding competition with [3H]-17β-estradiol, ERα
test-parameters: competition with [3H]-17β-estradiol, human ERα ligand binding domain; read-out: ER-α IC50
value-type: pIC50
Would you please state pIC50, meaning minus log10 of the concentration in mol/L, as a bare number?

Lab note: need pIC50 with human ERα (Homo sapiens) for entry CCSC1=C(c2ccc(O)cc2)C(=O)c2cc(O)ccc21 , please look it up. 8.00

Lab note: need pIC50 with human ERα (Homo sapiens) for entry O=C1C(c2ccc(O)cc2)=C(Br)c2cc(O)ccc21 , please look it up. 8.30

* * *

measured-on: human ERβ (Homo sapiens, UniProt Q92731)
Construct: M250-V595 of human ERα [Green, et al., Nature 320: 134-9 (1986)] and M214-Q530 of human ERβ; Flag (C); made in house; host or cells: E. coli BL21(DE3)
Sequence (Q92731 214-530): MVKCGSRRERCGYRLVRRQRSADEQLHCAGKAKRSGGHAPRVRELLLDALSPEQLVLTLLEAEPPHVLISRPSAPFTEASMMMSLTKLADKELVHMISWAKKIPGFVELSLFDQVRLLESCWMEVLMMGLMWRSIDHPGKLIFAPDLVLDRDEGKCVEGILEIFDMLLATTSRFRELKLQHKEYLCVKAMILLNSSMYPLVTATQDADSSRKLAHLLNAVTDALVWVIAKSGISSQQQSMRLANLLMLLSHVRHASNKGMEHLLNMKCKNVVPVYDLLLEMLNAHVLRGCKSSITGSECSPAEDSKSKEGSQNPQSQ
assay-text: Radioligand binding competition with [3H]-17β-estradiol, ERβ
test-parameters: competition with [3H]-17β-estradiol, human ERβ ligand binding domain; read-out: ER-β IC50
pIC50: −log10 of the molar value.
Class yes: pIC50 at least 8. Class no: pIC50 below 8.

Decide: pIC50 of O=C1c2cc(O)cc(O)c2C(=O)C1c1ccc(O)cc1 (stereo not shown) >= 8? no

Decide: pIC50 of O=C1c2ccc(O)cc2C(=O)C1c1ccc(O)cc1 (stereo not shown) >= 8? no

Decide: pIC50 of O=C1C(c2ccc(O)cc2)=C(c2ccccc2)c2c(O)cc(O)cc21 >= 8? no

Decide: pIC50 of CC1=C(c2ccc(O)cc2)C(=O)c2ccc(O)cc21 >= 8? yes

Decide: pIC50 of COc1cc(O)cc2c1C(Br)=C(c1ccc(O)cc1)C2=O >= 8? no
